# Test system: A549 NSCLC
# measurement-protocol: NCI tumour cell line growth inhibition, 48 h
quantity-measured: TGI

[
  {
    "compound": "COC(=O)NC1(NC(=O)OC)NC(=O)c2cc(OC)c(OC)c(OC)c2N1",
    "TGI": "> 100 µM"
  },
  {
    "compound": "CCN(CC)CCN1C(=O)c2c(c(-c3ccccc3)c3ccccc3c2-c2ccccc2)C1=O",
    "TGI": "> 100 µM"
  },
  {
    "compound": "O=C(O)c1cc2ccccc2oc1=O",
    "TGI": "> 100 µM"
  },
  {
    "compound": "CCOc1ccc(NC(=O)/C(=N\\NC(C)(C)C)C2C(=O)Nc3ccccc3S2=O)cc1 (centres undefined)",
    "TGI": "> 100 µM"
  },
  {
    "compound": "C=C(C)CC1(O)C(=O)C(OCC)=C1OCC (centres undefined)",
    "TGI": "> 100 µM"
  }
]

Just so you know, measured TGI for `CCCCOC(=O)NC(Nc1cccc(C(F)(F)F)c1)(C(F)(F)F)C(F)(F)F` came out at > 100 µM

Just so you know, measured TGI for `O=c1cc(-c2ccccc2)oc2cc(O)cc(O)c12` came out at > 100 µM

Just so you know, measured TGI for `O=C(Cc1csc(-c2nc(CC(=O)NNc3ccccc3)cs2)n1)NNc1ccccc1` came out at > 100 µM

Just so you know, measured TGI for `O=S(=O)(N/N=C/c1cccc(Cl)c1Cl)c1ccccc1` came out at > 100 µM

Just so you know, measured TGI for `Fc1ccc(-c2ncn(C3CCNCC3)c2-c2ccnc(Oc3ccc(F)c(F)c3)n2)cc1` came out at > 19.4 µM

Just so you know, measured TGI for C/C=C\C(CC(=O)NCCC1CN(S(=O)(=O)C(F)(F)F)c2ccccc21)CC(=O)OC (centres undefined) came out at > 100 µM
